Every entry's value here was drawn from ChEMBL document CHEMBL5380790.

# experiment_notes: Oral bioavailability in Beagle dog at 20 mg/kg and measured upto 24 hrs
# Format: ADME, organism-based, Canis lupus familiaris
# condition_description: in vivo
property: bioavailability (%)

[
  {
    "input_smiles": "Cn1cc(-c2ccc(CNc3cc(-c4cnc5cc(OCCCN6CCCC6)ccn45)ncn3)cc2)cn1",
    "property": "bioavailability",
    "reading": 80
  }
]

* * *

# experiment_notes: Solubility of compound in simulated gastric fluid at pH 1.2
# Format: physicochemical
property: solubility (µg/mL)

[
  {
    "input_smiles": "COCCOc1ccn2c(-c3cc(NCc4ccc(-c5cnn(C)c5)cc4)ncn3)cnc2c1",
    "unit_of_measure": "µg/mL",
    "reading": 890
  }
]
